Target: delta opioid receptor (Homo sapiens, UniProt P41143)
Sequence (P41143 whole entry): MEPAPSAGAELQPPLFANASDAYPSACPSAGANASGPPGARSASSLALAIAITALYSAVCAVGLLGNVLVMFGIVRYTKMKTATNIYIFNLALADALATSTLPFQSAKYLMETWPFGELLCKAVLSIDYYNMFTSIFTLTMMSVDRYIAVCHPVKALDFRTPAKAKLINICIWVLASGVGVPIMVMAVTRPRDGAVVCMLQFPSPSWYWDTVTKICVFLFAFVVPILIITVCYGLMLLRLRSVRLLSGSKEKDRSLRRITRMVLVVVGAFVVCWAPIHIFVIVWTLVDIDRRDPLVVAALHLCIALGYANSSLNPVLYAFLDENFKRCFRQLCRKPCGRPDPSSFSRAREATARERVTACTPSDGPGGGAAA
Experiment: Stimulation of [35S]GTPγS binding (coupling to G proteins)
Format: biochemical
Parameters: expressed in transfected cells; host or cells: transfected cells
Details: Table 2
Would you please tag the item 1 when its Emax is 80% or above, and -1 when it is below?

## Input Could you please find out whether CN1CCC23c4c5ccc(O)c4OC2C(NC(=O)c2ccc(Cl)c(Cl)c2)C=CC3C1C5 (stereo not drawn) [13g, 6β-(3′,4′-Dichloro)benzamidomorphine] has Emax that meets 80% or exceeds it?
## Output 1

## Input Repeat for the following molecule: COc1ccc2c3c1OC1C(NC(=O)CC4O[C@H](C(=O)O)[C@@H](O)[C@H](O)[C@H]4O)C=CC4C(C2)N(C)CCC341 (stereo partly drawn) [11b]
## Output -1

## Input Repeat for the following molecule: COc1ccc(CC(=O)NC2C=CC3C4Cc5ccc(O)c6c5C3(CCN4C)C2O6)cc1 (stereo not drawn) [13b, 6β-(4-Methoxyphenyl)acetamidomorphine]
## Output -1

## Input Repeat for the following molecule: COc1cccc(CC(=O)NC2C=CC3C4Cc5ccc(O)c6c5C3(CCN4C)C2O6)c1 (stereo not drawn) [13a, 6β-(3-Methoxyphenyl)acetamidomorphine]
## Output -1

## Input Repeat for the following molecule: COC(=O)[C@H]1OC(CC(=O)NC2C=CC3C4Cc5ccc(OC)c6c5C3(CCN4C)C2O6)[C@H](OC(C)=O)[C@@H](OC(C)=O)[C@@H]1OC(C)=O (stereo partly drawn)
## Output -1
